Assay: Solubility
Assay type: physicochemical
Settings: organic solvent or mixture, in alcohols; read-out: Solubility
Procedure: Solubility of compound 1 (103/33 F-710) was poor in most low to medium- polarity organic solvents, as well as in water from acidic to neutral pH; it was more soluble at basic pH and stable up to pH 8-9, while in alcohols it ranged between 5-10 mg/ml. […] Some crystallizations trials were performed on compound 1 (103/33 F-710) in order to obtain suitable crystals for the X-ray structural characterization.
measured.quantity: Solubility

### Prompt For the compound shown here, COc1c(OC)c2c(=O)c3cc(C)n(C(CC4CN(C)C(=N)N4)C(=O)O)c(=O)c3c(=O)c2c2cc3c(=O)c4cc(O)cc(O)c4c(=O)c3c(OC)c12 (stereo not shown) [compound 1] , give the reported Solubility.
### Response 5000 to 10000 µg/mL

* * *

Test: Solubility
Format: physicochemical
Settings: organic solvent or mixture, dimethylsulfoxide (DMSO); read-out: Solubility
measured.quantity: Solubility

### Prompt For the compound shown here, COc1c(OC)c2c(=O)c3cc(C)n(C(CC4CN(C)C(=N)N4)C(=O)O)c(=O)c3c(=O)c2c2cc3c(=O)c4cc(O)cc(O)c4c(=O)c3c(OC)c12 (stereo not shown) [compound 1] , give the reported Solubility.
### Response > 50 mg/mL
